target: TbrCatL (Trypanosoma brucei rhodesiense, UniProt Q95PM0); construct: Conor Caffrey (University of California San Diego); test: TbrCatL enzymatic inhibition assay (cleavage of fluorogenic substrate Z-FR-AMC); type: biochemical; conditions: 0’ (no pre-incubation); sheet Screening results;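 note: at 5 µM compound concentration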
Sequence (Q95PM0 entry or part of it): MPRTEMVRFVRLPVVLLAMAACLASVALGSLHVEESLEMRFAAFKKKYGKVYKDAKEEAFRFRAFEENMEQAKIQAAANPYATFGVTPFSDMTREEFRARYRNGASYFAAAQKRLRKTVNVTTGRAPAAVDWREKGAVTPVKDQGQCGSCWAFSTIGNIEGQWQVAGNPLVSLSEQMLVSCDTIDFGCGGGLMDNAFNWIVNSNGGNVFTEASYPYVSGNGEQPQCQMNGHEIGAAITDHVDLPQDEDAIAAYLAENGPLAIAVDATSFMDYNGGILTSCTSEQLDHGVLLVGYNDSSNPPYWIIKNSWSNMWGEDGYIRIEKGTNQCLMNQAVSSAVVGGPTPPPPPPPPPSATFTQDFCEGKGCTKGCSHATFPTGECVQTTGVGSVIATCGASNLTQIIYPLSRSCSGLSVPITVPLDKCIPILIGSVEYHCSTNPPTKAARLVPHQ
Please respond with reported TbrCatL Inhibition 0’ for every item in the list.
One number for each entry, in %.

INSERT INTO results (molecule, measured_value) VALUES
  ('COc1cccc(-n2nnnc2S(=O)(=O)Cc2ccccc2)c1 [MMV676388]', 18);

Here are 3 molecules. What values of TbrCatL Inhibition 0’ were reported for them?
1. N#CCN(CCCCN1CCN(c2ccc(F)cc2)CC1)C(=O)OCc1ccccc1 [MMV675997]
2. C[C@H]1COC2(CCN(c3nc(=O)c4cc(C(F)(F)F)cc([N+](=O)[O-])c4s3)CC2)O1 [MMV676603]
3. O=C(c1ccc(F)cc1)N(CCNc1ccccc1)c1ccccc1 [MMV676204]

result:
1. 1.6
2. 4.5
3. 2.6

Just for reference, paper PMC9967275 is where these values come from.
